src = patent US8933113B2

Parameter pIC50: see the listing below.
- tgt: full-length human Mineralocorticoid Receptor (MR) (Homo sapiens, UniProt P08235)
- Construct: host or cells: PathHunter CHO-K1 cells
- Sequence (P08235 whole entry): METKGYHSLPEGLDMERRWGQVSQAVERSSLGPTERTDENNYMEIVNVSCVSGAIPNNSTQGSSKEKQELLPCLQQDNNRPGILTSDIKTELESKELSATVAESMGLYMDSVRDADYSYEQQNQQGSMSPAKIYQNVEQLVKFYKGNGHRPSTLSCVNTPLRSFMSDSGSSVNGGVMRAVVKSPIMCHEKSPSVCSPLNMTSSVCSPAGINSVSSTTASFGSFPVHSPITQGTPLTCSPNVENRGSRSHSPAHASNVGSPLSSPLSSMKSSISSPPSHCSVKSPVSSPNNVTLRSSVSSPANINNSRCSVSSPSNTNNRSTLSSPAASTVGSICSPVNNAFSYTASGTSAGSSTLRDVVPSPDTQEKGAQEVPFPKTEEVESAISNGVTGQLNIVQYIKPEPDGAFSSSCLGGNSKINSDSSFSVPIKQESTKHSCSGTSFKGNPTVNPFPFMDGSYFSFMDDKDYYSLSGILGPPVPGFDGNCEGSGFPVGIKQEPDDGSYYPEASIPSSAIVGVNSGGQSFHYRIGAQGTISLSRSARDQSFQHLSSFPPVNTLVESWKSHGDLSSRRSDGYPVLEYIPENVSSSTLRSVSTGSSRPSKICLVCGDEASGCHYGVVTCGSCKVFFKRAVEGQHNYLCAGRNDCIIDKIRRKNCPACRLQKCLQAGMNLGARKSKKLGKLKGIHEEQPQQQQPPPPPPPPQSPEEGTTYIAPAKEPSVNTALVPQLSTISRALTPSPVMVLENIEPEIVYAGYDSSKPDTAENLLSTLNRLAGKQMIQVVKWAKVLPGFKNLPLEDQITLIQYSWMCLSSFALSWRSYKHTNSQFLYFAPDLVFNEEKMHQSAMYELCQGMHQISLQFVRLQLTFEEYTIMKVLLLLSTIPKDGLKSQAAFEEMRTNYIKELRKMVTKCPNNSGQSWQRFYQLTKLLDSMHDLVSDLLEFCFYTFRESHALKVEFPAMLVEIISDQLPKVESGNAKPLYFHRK
- assayMethodText: human MR NH Pro assay (PathHunter Protein:Protein interaction assay), MR antagonist activity
- Assay type: cell-based
- runParameters: PathHunter CHO-K1 cells overexpressing human MR; aldosterone about 0.3 nM; 6 hours at 37° C.; luminescence; read-out: Primary Assay IP rating (IP = inflection point for a given dose-response titration curve)
pIC50: −log10 of the molar value.

Examples with answers:
compound	pIC50
CCC(c1ccc(C(F)(F)F)cc1)(C(C)O)n1ncc2c(NS(C)(=O)=O)cccc21 (single isomer, unassigned) [Compound 116]	> 7.00
CCC(CCC#N)(c1ccc(OC)cc1)n1ccc2c(NS(C)(=O)=O)cccc21 (stereo not shown)	> 7.00
COC(=O)C(c1ccc(F)cc1Cl)n1ccc2c([N+](=O)[O-])cccc21 (stereo not shown)	6.30 to 7.00

What pIC50 value was documented for this compound, CCC(c1ccc(Cl)cc1)(C(C)O)n1ccc2c(NS(C)(=O)=O)cc(F)cc21 (single isomer, unassigned) ?
> 7.00
